In this section we review reported pKd values for a set of binders.
# SYSTEM: T1, human BR3 extracellular domain (human, UniProt Q96RJ3 1-61)
# T1 construct: biotinylated where used as tracer; also called hBR3-ECD; BR3-ECD
# MEASUREMENT DESCRIPTION: SPR, IgG on chip, BR3 ECD in solution
pKd: −log10 of the molar value.
PARAMETER MEASURED: pKd

* Hu9.1-88 IgG (antibody, V domains shown, humanized IgG; also called h9.1-88) VH: EVQLVESGGGLVQPGGSLRLSCAASGFPVTGSYVSWVRQAPGKGLEWVGFIRDKANGYTTEYNPSVKGRFTISRDTSKNTLYLQMNSLRAEDTAVYYCAQVRRALDYWGQGTLVTVSS VL: DIQMTQSPSSLSASVGDRVTITCKSSQSLLYSSNQNNYLAWYQQKPGKAPKLLIYWASTRESGVPSRFSGSGSGTDFTLTISSLQPEDFATYYCQQYYTYPYTFGQGTKVEIKR | 9.04
* mV3-46 IgG (antibody, V domains shown, IgG on chip) VH: EVQLVESGGGLVQPGGSLRLSCAASGFTISNSSIHWVRQAPGKGLEWVAWVLPSVGFTDYADSVKGRFTISADTSKNTAYLQMNSLRAEDTAVYYCARRVCYNRLGVCAGGMDYWGQGTLVTVSS VL: DIQMTQSPSSLSASVGDRVTITCRASQDVSTAVAWYQQKPGKAPKLLIYSASFLYSGVPSRFSGSGSGTDFTLTISSLQPEDFATYYCQQSQISPPTFGQGTKVEIKR | 9.62
* Hu2.1-46 IgG (antibody, V domains shown, humanized IgG; also called h2.1-46) VH: EVQLVESGGGLVQPGGSLRLSCAASGDSITRGYWNWVRQAPGKGLEWVGYINYSGTTYYNPSLKSRFTISRDTSKNTFYLQMNSLRAEDTAVYYCANSNFYGAMDYWGQGTLVTVSS VL: DIQMTQSPSSLSASVGDRVTITCRASESVDDYGISFMHWYQQKPGKAPKLLIYRASDLESGVPSRFSGSGSGTDFTLTISSLQPEDFATYYCQQTSKDPWTFGQGTKVEIKR | 9.71
* murine monoclonal antibody 2.1 (antibody, V domains shown, mouse hybridoma IgG; also called 2.1 IgG; mu2.1) VH: EVQLQESGPSLVKPSQTLSLTCSVTGDSITRGYWNWIRKFPGNKLEFMGYINYSGTTYYNPSLKSRISITRDTSKNQYYLQLNSVTTEDTATYYCATPHTYGAMDYWGQGTTLTVSA VL: DIVLTQSPVSLAVSLGQRATISCRASESVDDYGISFMHWYQQKPGQPPKLLIYRASDLESGIPARFSGSGSGTDFTLTINPVETDDVAIYYCQQTSKDPWTFGGGT | 9.82

Data provenance is patent US20100280227A1.
